- Measurement notes: Metabolic stability in blood of athymic nude mouse xenografted with human HT-29 cells at 4 to 8 MBq, iv after 30 mins by radio-HPLC analysis
- Type: ADME, organism-based
- Cond: read-out: Stability

[
  {
    "Compound": "COc1cccc(OC)c1-c1cc(C(=O)NC2(C(=O)O)C3CC4CC(C3)CC2C4)nn1-c1ccc(C(=O)N(C)CCCN(C)CCCCc2cn([C@@H]3O[C@H](CO)[C@@H](O)[C@H](O)[C@H]3[18F])nn2)cc1C(C)C (stereo partly specified)",
    "remaining at 0.5 h": "> 98%"
  }
]

====

- Measurement notes: Octanol-water partition coefficient, log D of the compound at pH 7.4 by gamma-counting analysis
- Assay type: physicochemical

[
  {
    "Molecule": "COc1cccc(OC)c1-c1cc(C(=O)NC2(C(=O)O)C3CC4CC(C3)CC2C4)nn1-c1ccc(C(=O)N(C)CCCN(C)CCCCc2cn([C@@H]3O[C@H](CO)[C@@H](O)[C@H](O)[C@H]3[18F])nn2)cc1C(C)C (stereo partly specified)",
    "logD": -0.24
  }
]
